Test system: glycogen synthase kinase-3 (GSK3A per assay name; protocol says GSK3B)
Assay: GSK3 binders on small-molecule microarrays, primary screen, biochemical, small-molecule microarray, 635 nm fluorescence, GSK3A (AID 1103); further: the record names both GSK3A and GSK3B
Conditions: small-molecule microarray binding, fluorescence 635 nm; higher = more signal
Assign composite z-score to each entry below.
Numbers only.

Below: 3 compounds and their reported composite z-score.
O=C1NCC(=O)N2[C@@H]1C[C@@H](C(=O)O)[C@H]2c1cccc(OCCO)c1 ... 1.38
C=CC[C@@]1(C(N)=O)N=C(c2ccc(OCCCO)cc2)O[C@@H]1c1ccccc1CN=[N+]=[N-] ... 0.336
COc1ccc(COC2OC[C@]3(C)[C@H]4C5=C(CN3C(=O)OC(C)(C)C)[C@H](C)C(CO)C(CO)C5CC[C@@H]24)cc1 (some centres undefined) ... 1.3

Continue with the compound presented below.
input: Reported composite z-score, compound O=C1O[C@H](c2ccccc2)[C@H](c2ccccc2)N2[C@H]1[C@@H](C(=O)O)[C@]1(C(=O)Nc3ccc(C#CC4=CCCCC4)cc31)[C@H]2c1ccccc1OCCO : ____
output: 1.32

====

Assay: mitochondrial membrane potential change in A549 cells, profiling panel, cell-based, JC-1 fluorescence, basal, 24 h, 100 nL (AID 1138);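 further: A549 lung adenocarcinoma cells under basal conditions with no added stimulus; test concentration not given here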
Conditions: higher = more signal
Class (by z-score) -- bin 0 = under -0.4, bin 1 = from -0.4 up to 0.3, bin 2 = 0.3 and over

O=C1OCCC/C=C\[C@H]2OC34C=CCN(Cn5nnc6ccccc65)C(=O)[C@H]3N(CCCCCCO)C(=O)[C@@H]4C12 (stereo not given in full) ... bin 2
[N-]=[N+]=NCc1ccccc1C[C@@]1(C(=O)NCC(O)CO)N=C(c2ccc(OCCCO)cc2)O[C@@H]1c1ccccc1N=[N+]=[N-] (stereo not given in full) ... bin 1
COC(=O)[C@@]1(Cc2ccc(F)cc2)[C@@H]2[C@@H](CC(=O)[C@H]2CC(=O)C(=O)N(C)C)CN1C(=O)c1ccccc1 ... bin 2
C=CC[C@]1(C(=O)NCCCOC)N=C(c2ccc(OCCCO)cc2)O[C@H]1c1ccccc1N=[N+]=[N-] ... bin 2
O=C1O[C@H](c2ccccc2)[C@H](c2ccccc2)N2[C@H]1[C@@H](C(=O)N1CCN(c3ncccn3)CC1)[C@]1(C(=O)Nc3ccc(C#CC4=CCCCC4)cc31)[C@H]2c1ccc(O)cc1 ... bin 0
COCCOC(=O)N1C(=O)[C@@]2(c3cc(C#CC4=CCCCC4)ccc31)[C@H](C(N)=O)[C@H]1C(=O)O[C@H](c3ccccc3)[C@H](c3ccccc3)N1[C@@H]2c1ccc(OCCO)cc1 ... bin 0
COC(=O)C(CC#Cc1ccc2c(c1)[C@]1(C(=O)N2)[C@H](c2ccc(O)cc2)N2[C@H](c3ccccc3)[C@H](c3ccccc3)OC(=O)[C@H]2[C@@H]1C(=O)Nc1nc2ccccc2s1)C(=O)OC ... bin 0
O=C1OCCC/C=C\[C@H]2OC34C=CCN(Cn5nnc6ccccc65)C(=O)[C@H]3N(CCO)C(=O)[C@@H]4C12 (stereo not given in full) ... bin 0
COCCCNC(=O)[C@@]1(Cc2ccccc2)N=C(c2ccc(OCCCO)cc2)O[C@H]1c1ccccc1 ... bin 1
O=C(C1N=C(c2ccc(OCCCO)cc2)N(c2ccccc2)O1)N1CCOCC1 (stereo not given) ... bin 1

input: Which band does CC(C)C(CO)N1C(=O)[C@@H]2[C@H]3C(=O)OCC=C[C@H]3OC23C=CCN(C(C)C)C(=O)[C@@H]13 (stereo not given in full) fall in?
output: bin 0
